src = patent US20070249607A1

# TARGET: neurokinin-1 (NK-1) receptor (Homo sapiens, UniProt P25103)
# Construct: a human glioblastoma-astrocytoma cell line that endogenously expresses the neurokinin-1 (NK-1) receptor; endogenous in cells; host or cells: U373 human glioblastoma-astrocytoma cells (membranes)
# Sequence (P25103 whole entry): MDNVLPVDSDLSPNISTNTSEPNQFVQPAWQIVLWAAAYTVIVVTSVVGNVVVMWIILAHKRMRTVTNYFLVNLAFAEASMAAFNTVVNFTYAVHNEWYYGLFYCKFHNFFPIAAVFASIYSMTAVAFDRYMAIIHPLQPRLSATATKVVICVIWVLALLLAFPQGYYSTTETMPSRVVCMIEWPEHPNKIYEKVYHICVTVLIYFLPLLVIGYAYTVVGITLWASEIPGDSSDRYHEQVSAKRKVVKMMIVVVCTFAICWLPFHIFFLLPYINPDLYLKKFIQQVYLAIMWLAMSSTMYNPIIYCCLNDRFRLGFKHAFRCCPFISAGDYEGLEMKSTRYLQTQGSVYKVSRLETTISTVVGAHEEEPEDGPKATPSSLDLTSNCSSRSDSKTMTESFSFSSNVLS
# ASSAY_INFO: NK-1 Binding assay ([125I] Substance P competition, U373 cell membranes)
# ASSAY_CONTEXT: Table 2; U373 membranes, [125I] Substance P displacement; read-out: NK-1 IC50
Give IC50 for every item shown.

Examples with answers:
input: Dear colleague, please send me the reported IC50 for `FC(F)(F)c1cc(COCC2(c3ccccc3)CCNCC2)cc(-c2cccc(OCc3ccccc3)c2)c1` when you can.
output: 0.01 to 100 nM

input: Could you please provide reported IC50 for `Fc1ccc(-c2cc(F)cc(COCC3(c4ccccc4)CCNCC3)c2)cc1` ? Thanks!
output: > 300 nM

input: Consider the compound `CC(C)OC(=O)c1ccc(-c2cc(COCC3(c4ccccc4)CCNCC3)cc(C(F)(F)F)c2)cc1` . State its measured IC50.
output: 0.01 to 100 nM

For each listed entry, give its IC50.
1. COc1cccc(-c2cc(COCC3(c4ccccc4)CCNCC3)cc(C(F)(F)F)c2)c1OC
2. N#Cc1ccc(-c2cc(COCC3(c4ccccc4)CCNCC3)cc(C(=O)N3CCOCC3)c2)cc1
3. N#Cc1ccc(-c2cc(COCC3(c4ccccc4)CCN(C4CC4)CC3)cc(C(F)(F)F)c2)cc1

output:
["100 to 300 nM", "> 300 nM", "0.01 to 100 nM"]

Please go through the list and note IC50 for each compound.
1. Fc1cccc(-c2cc(COCC3(c4ccccc4)CCNCC3)cc(C(F)(F)F)c2)c1F
2. N#Cc1ccc(-c2cc(COCC3(c4ccc(Br)cc4)CCNCC3)cc(C(F)(F)F)c2)cc1
3. CN1CCC(COCc2cc(-c3ccc(C#N)cc3)cc(C(F)(F)F)c2)(c2ccc(C#N)cc2)CC1

output:
0.01 to 100 nM
0.01 to 100 nM
0.01 to 100 nM

###

Would you kindly list IC50 for each of these compounds?
# TARGET: human serotonin transporters (Homo sapiens)
# Construct: expressed in transfected cells
# Sequence (P31645 whole entry): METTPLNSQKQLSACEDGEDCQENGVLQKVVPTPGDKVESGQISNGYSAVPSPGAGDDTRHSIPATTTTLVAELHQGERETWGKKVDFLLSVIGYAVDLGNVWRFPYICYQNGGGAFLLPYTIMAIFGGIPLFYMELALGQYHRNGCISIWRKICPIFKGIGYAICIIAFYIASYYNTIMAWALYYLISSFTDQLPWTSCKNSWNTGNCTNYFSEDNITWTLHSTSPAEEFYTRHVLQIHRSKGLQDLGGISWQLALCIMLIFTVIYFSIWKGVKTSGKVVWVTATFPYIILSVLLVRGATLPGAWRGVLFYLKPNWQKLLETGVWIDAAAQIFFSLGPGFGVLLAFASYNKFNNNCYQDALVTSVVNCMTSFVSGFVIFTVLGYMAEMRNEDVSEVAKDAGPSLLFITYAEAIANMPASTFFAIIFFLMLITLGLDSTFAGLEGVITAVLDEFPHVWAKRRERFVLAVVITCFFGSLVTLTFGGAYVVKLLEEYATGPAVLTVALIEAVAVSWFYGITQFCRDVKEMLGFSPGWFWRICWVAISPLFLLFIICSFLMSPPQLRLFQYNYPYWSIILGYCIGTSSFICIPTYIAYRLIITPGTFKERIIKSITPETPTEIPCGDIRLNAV
# ASSAY_INFO: Serotonin transporter binding assay ([3H]-citalopram competition, HEK-hSERT cell membranes)
# ASSAY_CONTEXT: Table 1; HEK-hSERT membranes, [3H]-citalopram displacement; read-out: SERT IC50

input: Fill in IC50 for `FC(F)(F)c1cc(COCC2(c3ccccc3)CCNCC2)cc(-c2ccccc2Oc2ccccc2)c1` tested with human serotonin transporters (Homo sapiens).
output: 100 to 300 nM

Hi, could you look up IC50 for each item in my list?
1. Nc1ccc(-c2cc(COCC3(c4ccccc4)CCNCC3)cc(C(F)(F)F)c2)cn1
2. FC(F)(F)c1cc(COCC2(c3ccccc3)CCNCC2)cc(-c2ccc(Cl)c(Cl)c2)c1
3. N#Cc1ccc(-c2cc(COCC3(c4ccc(F)cc4)CCNCC3)cc(C(F)(F)F)c2)cc1
4. Cc1cc(C)c(-c2cc(COCC3(c4ccccc4)CCNCC3)cc(C(F)(F)F)c2)c(C)c1
5. FC(F)(F)c1cc(COCC2(c3ccccc3)CCNCC2)cc(-c2cccc3cccnc23)c1
6. Cn1nnnc1-c1cc(COCC2(c3ccccc3)CCNCC2)cc(C(F)(F)F)c1
7. FC(F)(F)c1cc(COCC2(c3ccccc3)CCNCC2)cc(-c2ccc(N3CCOCC3)nc2)c1

output:
1. 0.01 to 100 nM
2. 0.01 to 100 nM
3. 0.01 to 100 nM
4. > 300 nM
5. 0.01 to 100 nM
6. 0.01 to 100 nM
7. 0.01 to 100 nM

Record IC50 per entry; entries follow.
1. N#Cc1ccc(-c2cc(Br)cc(COCC3(c4ccccc4)CCNCC3)c2)cc1
2. CN1CCN(c2cc(-c3cc(COCC4(c5ccccc5)CCNCC4)cc(C(F)(F)F)c3)ccn2)CC1

output:
1: 0.01 to 100 nM; 2: 100 to 300 nM
